These entries and their values trace back to ChEMBL document CHEMBL1134773.

measurement-target: Integrin alpha-4/beta-7 (Homo sapiens) (UniProt P13612+P26010)
test-name: Ability to inhibit adhesion of alpha4-beta7 integrin expressing 38-beta7 lymphoma cells to chinese hamster ovary (CHO) cells stably transfected with MAdCAM-1
Assay type: cell-based
This section presents compounds with their documented Adhesion values.
# value in %; strip the unit string

Some solved cases for reference:
{"chemical-structure": "CSCC[C@H]1NC(=O)[C@H]([C@@H](C)O)NC(=O)[C@@H](CC(=O)O)NC(=O)[C@H](CC(C)C)NC(=O)[C@@H](CC(=O)O)NC(=O)[C@H]2CCCN2C1=O", "Adhesion, %": 83}
{"chemical-structure": "CC(C)C[C@@H]1NC(=O)[C@@H](Cc2ccccc2)NC(=O)[C@H]2CCCN2C(=O)[C@@H](CCCCN)NC(=O)[C@H]([C@@H](C)O)NC(=O)[C@@H](CC(=O)O)NC1=O", "Adhesion, %": 85}

Notebook: pull reported Adhesion for Integrin alpha-4/beta-7 (Homo sapiens) (UniProt P13612+P26010), entry `CC(C)C[C@@H]1NC(=O)[C@@H]2Cc3ccccc3CN2C(=O)[C@H]2CCCN2C(=O)[C@@H](CC(=O)O)NC(=O)[C@H]([C@@H](C)O)NC(=O)[C@@H](CC(=O)O)NC1=O`
9

Notebook: pull reported Adhesion for Integrin alpha-4/beta-7 (Homo sapiens) (UniProt P13612+P26010), entry `C[C@H]1NC(=O)[C@H]2CCCN2C(=O)[C@@H](CC(=O)O)NC(=O)[C@H]([C@@H](C)O)NC(=O)[C@@H](CC(=O)O)NC(=O)[C@@H](c2ccccc2)NC1=O`
114

Notebook: pull reported Adhesion for Integrin alpha-4/beta-7 (Homo sapiens) (UniProt P13612+P26010), entry `CC(C)C[C@@H]1NC(=O)[C@@H](C)NC(=O)[C@H]2CCCN2C(=O)[C@@H](CC(=O)O)NC(=O)[C@H]([C@@H](C)O)NC(=O)[C@@H](CC(=O)O)NC1=O`
47
